assay: Restrictive medium S. cerevisiae growth inhibition, OD615, pilot screen of yeast lifespan reduction project, restrictive growth control (AID 706); details: OD615, 48 h, at 10 µM;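 also: modified DeaD lifespan yeast strain shifted to restrictive glucose medium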
Calls of active or inactive are those of the source.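 The calls were made as follows: active = growth inhibition above a set limit, 3 SD over mean compound inhibition, in both replicates (cut at about 43% in these data); inconclusive = above the limit in only one replicate; inactive = at or below the limit in both replicates.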
Would you mind answering with one of these outcomes? yes (1) = active, no (0) = inactive

Hey, what did the test say about `CCCCCn1c(NC2CCCCC2)nc2c1c(=O)[nH]c(=O)n2C` ?
no (0)

Please share the test call associated with `C/C(=C1/SC(=S)N(CCC(=O)O)C1=O)c1ccc(O)cc1` .
no (0)

Please indicate how the test categorized Cc1cccc(N2CCN(C(=O)C3CCN(c4nnc(-n5cccc5)s4)CC3)CC2C)c1 (stereo unspecified) .
no (0)

In this assay, the call recorded for `COc1ccc(-c2nnc(NC(=O)c3ccccc3C)o2)cc1` was what?
no (0)

----------
Would you kindly list viability for each of these molecules?
experiment: SK-BR-3 cell growth inhibitors, pilot screen, 24 h, human (AID 572); conditions: SK-BR-3 viability, CellTiter-Glo luminescence, at 10 µM, hits give low values;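 also: compound exposure lasted between 18 and 24 h rather than exactly 24 h; 100% = carrier-treated control wells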
One number for each entry, in %.

1) COc1cccc(-c2cc(C(F)(F)F)n3ncc(C(=O)O)c3n2)c1: 93

I have 3 molecules here; please give me viability for each one.
1. CCc1nnc(NC(=O)NCN2C(=O)C3C4C=CC(C4)C3C2=O)s1 (stereo unspecified)
2. CSc1ccccc1NC(=O)c1c(Br)cnn1C
3. C[C@@H]1C[C@H]2[C@@H]3C[C@H](F)C4=CC(=O)C=C[C@]4(C)[C@@]3(F)[C@@H](O)C[C@]2(C)[C@@]1(O)C(=O)CO

123
89.5
74

----------
experiment: growth inhibitors of H69AR lung tumor, primary screen, human, duplicate replicates (AID 580); conditions: H69AR lung tumor cells viability, ATP luminescence, 72 h; at 10 µM; hits give low values;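 also: 100% = mean luminescence of untreated wells and 0% = no signal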
property: viability (%)
One number for each entry, in %.

Solved entries:
1. CCOc1ccc(C(=O)N2CCN(C(=O)c3ccco3)CC2)cc1OCC: 94.3
2. CCSC1=NCN(CCCC(=O)O)CN1: 99.9

Would you mind listing viability for each of the following compounds?
1. COC(=O)COc1nc(C)c(Br)c(OC)n1
2. Cc1cccc(C)c1NC(=O)C1CCCCN1C (stereo not given)
3. COc1cc(N2C(=O)CSC23C(=O)Nc2ccccc23)cc(OC)c1OC (stereo not given)
4. CCOc1cc(N2CCOCC2)c(OCC)cc1NC(=O)CSc1cccc[n+]1[O-]
5. CCOC(=O)N1CCN(c2c(NCCCOC(C)C)c(=O)c2=O)CC1
6. O=C(NC1CCCCC1)c1ccc(S(=O)(=O)N2CCCCC2)cc1

[116, 99.7, 95.7, 86.8, 97.5, 74.9]

----------
Provide the reported viability of each item.
experiment: growth suppression of beta-catenin knockout HCT116, pilot screen, human colon tumor cells (AID 823); conditions: CellTiter-Glo, 60 h, at 10 µM, hits give low values;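 also: 0% = wells killed by 20 µM Hyamine and 100% = untreated DMSO cell wells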
Results filed as inconclusive are left out.
Give bare numbers, in %.

Record excerpt, results attached:
1. Cc1ccc(C)c(-n2nnnc2SCC(=O)Nc2cccc(-c3nnc4n3CCCCC4)c2)c1: 97.7
2. COc1ccc(N2CCN(CCNC(=O)c3ccc(NC(=O)C4CCCO4)cc3)CC2)cc1 (stereo unspecified): 99.8
3. O=C(Nc1c(C(=O)N2CCCCC2)cnn1-c1ccccc1)c1ccccc1: 105

Please report viability for every entry that follows.
1. Cn1c(=O)oc2cc(S(=O)(=O)N3CCC(C(=O)NCc4cccs4)CC3)ccc21
2. Cc1cc(C)nc(SCSc2nc(C)cc(C)n2)n1

1: 95.1; 2: 104

Please state, for each entry, its recorded viability.
1. COC(=O)C1=C(C)Nc2ccc(C)cc2S1
2. CC1=C(C(N)=O)C(c2ccccc2)n2nc(-c3cccc(C)c3)nc2N1 (stereo unspecified)
3. CC(C)Sc1nc(N)c2c3c(sc2n1)CN(C)CC3
4. Cc1nn(CC(=O)Nc2cccnc2N2CCOCC2)c(=O)c2ccccc12
5. COc1ccc(-n2nnc3c(=O)n(CC(=O)N4CCCc5ccccc54)cnc32)cc1
6. C=C(C)CSC1=C(C#N)C(c2ccccc2)CC(=O)N1 (stereo unspecified)

1: 98.8; 2: 98.9; 3: 101; 4: 95; 5: 95.2; 6: 86.6
